Source of measurements: patent US12091426B2

- Measured target: HPK1 (Homo sapiens, UniProt Q92918)
- Construct: A HiBiT tag was introduced by CRISPR on the N terminus of HPK1 in Jurkat cells; host or cells: Jurkat cells (ATCC TIB-152), monoclonal line with CRISPR knock-in of HiBiT at the endogenous HPK1 locus
- Sequence (Q92918 whole entry): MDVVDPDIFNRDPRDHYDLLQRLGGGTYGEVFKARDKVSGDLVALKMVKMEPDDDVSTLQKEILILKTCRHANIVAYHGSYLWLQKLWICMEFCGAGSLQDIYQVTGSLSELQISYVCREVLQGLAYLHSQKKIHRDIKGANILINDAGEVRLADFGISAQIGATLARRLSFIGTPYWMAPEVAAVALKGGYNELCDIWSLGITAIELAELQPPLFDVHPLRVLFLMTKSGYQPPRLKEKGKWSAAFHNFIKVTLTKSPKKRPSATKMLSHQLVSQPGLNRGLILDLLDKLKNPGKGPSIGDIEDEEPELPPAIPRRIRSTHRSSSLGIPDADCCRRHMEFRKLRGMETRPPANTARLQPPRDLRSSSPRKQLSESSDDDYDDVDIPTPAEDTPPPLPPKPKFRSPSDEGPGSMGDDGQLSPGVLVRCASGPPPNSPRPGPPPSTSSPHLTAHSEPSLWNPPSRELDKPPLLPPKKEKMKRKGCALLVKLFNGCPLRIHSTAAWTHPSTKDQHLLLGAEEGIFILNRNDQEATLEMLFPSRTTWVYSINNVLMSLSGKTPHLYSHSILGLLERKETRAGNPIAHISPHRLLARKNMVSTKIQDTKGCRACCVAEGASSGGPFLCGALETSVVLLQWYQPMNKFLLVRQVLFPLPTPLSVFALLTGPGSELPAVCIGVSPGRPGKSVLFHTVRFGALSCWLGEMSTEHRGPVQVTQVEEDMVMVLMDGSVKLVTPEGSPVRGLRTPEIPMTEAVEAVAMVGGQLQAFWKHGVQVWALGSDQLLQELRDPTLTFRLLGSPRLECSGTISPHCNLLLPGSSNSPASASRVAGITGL
- Method: HPK1 Cellular HiBit Degradation Assay
- Type: cell-based
- Experimental setup: HiBiT HPK1 Jurkat cells, 24 hrs; maximum degradation vs DMSO vehicle control
Parameter: Dmax Category

* CC(C)n1cnc2cc(-c3ccc4c(c3)N(C3CC(N5CCCCC5)C3)C(=O)C43CCN(C(=O)[C@@H]4CCN(C(=O)C5CCN(c6ccc(C7CCC(=O)NC7=O)cn6)CC5)C4)CC3)nc(Nc3ccncc3F)c21 (mixture of isomers) [Example 25] | B (B: >70%-<85%)
* CC(C)n1cnc2cc(-c3ccc4c(c3)N(C3CC(N5CCCCC5)C3)C(=O)C43CCN(C(=O)C4(C)CCN(C(=O)C5(C)CCN(c6ccc(C7CCC(=O)NC7=O)cn6)CC5)CC4)CC3)nc(NC3CC3)c21 (racemic) [Example 151] | B (B: >70%-<85%)

###

Property: DC50; scope: individual compounds
- Measured target: HPK1 (Homo sapiens)
- Construct: A HiBiT tag was introduced by CRISPR on the N terminus of HPK1 in Jurkat cells; host or cells: Jurkat cells (ATCC TIB-152), monoclonal line with CRISPR knock-in of HiBiT at the endogenous HPK1 locus
- Method: HPK1 Cellular HiBit Degradation Assay
- Type: cell-based
- Experimental setup: HiBiT HPK1 Jurkat cells, 24 hrs; concentration at which 50% of HPK1 was remaining; read-out: DC50 Category
- Experimental: HPK1 Cellular HiBit Degradation Assay A HiBiT tag was introduced by CRISPR on the N terminus of HPK1 in Jurkat cells (ATCC® TIB-152) to allow quantitation of HPK1 protein levels in a monoclonal human cell line. […] Cells were incubated for 10 min at room temperature and luminescence was read on an EnVision plate reader (Perkin Elmer, 0.1 sec per well). […] Percent HPK1 remaining per sample was calculated as follows: […]

Solved cases below.
• CC1CN(C(=O)C2CCN(c3ccc(C4CCC(=O)NC4=O)cn3)CC2)CCC1C(=O)N1CCC2(CC1)C(=O)N([C@H]1C[C@@H](N3CCCCC3)C1)c1cc(-c3cc4ncn(C(C)C)c4c(NC4CC4)n3)ccc12 (mixture of isomers) = < 100 nM
• CC(C)n1cnc2cc(-c3ccc4c(c3)N([C@H]3C[C@@H](N(C)C)C3)C(=O)C43CCN(C(=O)C4CCN(C(=O)C5CCN(c6ccc(C7CCC(=O)NC7=O)cn6)CC5)CC4)CC3)nc(Nc3ccccc3F)c21 (mixture of isomers) = 100 to 500 nM
• CC(C)n1cnc2cc(-c3ccc4c(c3)N([C@H]3C[C@@H](N5CCCCC5)C3)C(=O)C43CCN(C(=O)[C@@H]4C[C@@H]5C[C@H]4CN5C(=O)C4CCN(c5ccc(C6CCC(=O)NC6=O)cn5)CC4)CC3)nc(NC3CC3)c21 (mixture of isomers) = < 100 nM
• CC(C)n1cnc2cc(-c3ccc4c(c3)N([C@H]3C[C@@H](N5CCCCC5)C3)C(=O)C43CCN(C(=O)[C@@H]4CCN(C(=O)[C@H]5CC[C@H](Nc6ccc(C7CCC(=O)NC7=O)cc6)CC5)C4)CC3)nc(Nc3ccncc3F)c21 (some centres unmarked) = < 100 nM
• CC(C)n1cnc2cc(-c3ccc4c(c3)N([C@H]3C[C@@H](N5CCCCC5)C3)C(=O)C43CCN(C(=O)[C@]4(C)CCN(C(=O)C5CCN(c6ccc(C7CCC(=O)NC7=O)cn6)CC5)C4)CC3)nc(NC3CC3)c21 (mixture of isomers) = 100 to 500 nM

Q: Could you tell me which DC50 is on file for CC(C)n1cnc2cc(-c3ccc4c(c3)N([C@H]3C[C@@H](N5CCCCC5)C3)C(=O)C43CCN(C(=O)C4CCN(C(=O)[C@H]5CC[C@H](N(C)c6cccc7c6C(=O)N(C6CCC(=O)NC6=O)C7=O)CC5)CC4)CC3)nc(NC3CC3)c21 (mixture of isomers) ?
Result: 500 to 1000 nM

Q: Same again, this time with CC(C)n1cnc2cc(-c3ccc4c(c3)N([C@H]3C[C@@H](N5CCC[C@H](F)C5)C3)C(=O)C43CCN(C(=O)C4(C)CCN(C(=O)CC5CCN(c6ccc(C7CCC(=O)NC7=O)cn6)CC5)CC4)CC3)nc(NC3CC3)c21 (mixture of isomers)
Result: 100 to 500 nM

Q: Can you handle CC(C)n1cnc2cc(-c3ccc4c(c3)N([C@H]3C[C@@H](N5CCCCC5)C3)C(=O)C43CCN(C(=O)[C@@H]4CCN(C(=O)[C@H]5CC[C@H](Nc6cc(C7CCC(=O)NC7=O)ccn6)CC5)C4)CC3)nc(Nc3ccccc3F)c21 (mixture of isomers) next?
Result: 100 to 500 nM
